- TEST DETAILS: Plasma levels of Compound 1 over 24 hours after 14 days of suspension administration in healthy volunteers
- Type: in vivo
- RECORDED CONDITIONS: human, oral, 75 mg BID suspension, 14 h post-dose
ASSAY READOUT: concentration at 14 h (ng/mL)

MOLECULE	QUANTITATIVE RESULT
NC(=O)N1CCC[C@@H](N(C(=O)NCc2ccc(OC(F)(F)F)cc2F)C2CC2)C1 [Cpd 1]	2280

====

- TEST DETAILS: Plasma levels of Compound 1 over 72 h, suspension versus tablet, fasted or fed, in healthy volunteers
- Format: in vivo
- RECORDED CONDITIONS: human, oral, 100 mg, 100 mg suspension, fasted, 24 h post-dose, read-out: Plasma level, Mean
ASSAY READOUT: concentration at 24 h (ng/mL)

COMPOUND	ASSAY READOUT	QUANTITATIVE RESULT
NC(=O)N1CCC[C@@H](N(C(=O)NCc2ccc(OC(F)(F)F)cc2F)C2CC2)C1 [Cpd 1]	concentration at 24 h	216

====

- TEST DETAILS: Plasma levels of Compound 1 over 24 hours after 14 days of suspension administration in healthy volunteers
- Assay type: in vivo
- RECORDED CONDITIONS: human, oral, 25 mg BID suspension, 6 h post-dose
ASSAY READOUT: concentration at 6 h (ng/mL)

QUERY SMILES	QUANTITATIVE RESULT
NC(=O)N1CCC[C@@H](N(C(=O)NCc2ccc(OC(F)(F)F)cc2F)C2CC2)C1	442

====

- TEST DETAILS: Plasma levels of Compound 1 over 72 h, suspension versus tablet, fasted or fed, in healthy volunteers
- Type: in vivo
- RECORDED CONDITIONS: human, oral, 100 mg, 100 mg tablet, fasted, 72 h post-dose, read-out: Plasma level, Mean

COMPOUND	concentration at 72 h (ng/mL)
NC(=O)N1CCC[C@@H](N(C(=O)NCc2ccc(OC(F)(F)F)cc2F)C2CC2)C1 [Cpd 1]	11.4

====

- TEST DETAILS: Plasma levels of Compound 1 over 72 h, suspension versus tablet, fasted or fed, in healthy volunteers
- Type: in vivo
- RECORDED CONDITIONS: human, oral, 100 mg, 100 mg suspension, fasted, 2 h post-dose, read-out: Plasma level, Mean

QUERY SMILES	concentration at 2 h
NC(=O)N1CCC[C@@H](N(C(=O)NCc2ccc(OC(F)(F)F)cc2F)C2CC2)C1	2630 ng/mL

====

- TEST DETAILS: Plasma levels of Compound 1 over 72 h, suspension versus tablet, fasted or fed, in healthy volunteers
- Format: in vivo
- RECORDED CONDITIONS: human, oral, 100 mg, 100 mg tablet, fasted, 0 h post-dose, read-out: Plasma level, Mean

QUERY SMILES	RESULT UNIT	concentration at 0 h
NC(=O)N1CCC[C@@H](N(C(=O)NCc2ccc(OC(F)(F)F)cc2F)C2CC2)C1	ng/mL	12.1

====

- TEST DETAILS: Plasma levels of Compound 1 over 72 h, suspension versus tablet, fasted or fed, in healthy volunteers
- Assay type: in vivo
- RECORDED CONDITIONS: human, oral, 100 mg, 100 mg suspension, fasted, 6 h post-dose, read-out: Plasma level, Mean

QUERY SMILES	concentration at 6 h
NC(=O)N1CCC[C@@H](N(C(=O)NCc2ccc(OC(F)(F)F)cc2F)C2CC2)C1	2090 ng/mL

====

- TEST DETAILS: Plasma levels of Compound 1 over 24 hours after 14 days of suspension administration in healthy volunteers
- Type: in vivo
- RECORDED CONDITIONS: human, oral, 75 mg BID suspension, 2 h post-dose
ASSAY READOUT: concentration at 2 h (ng/mL)

QUERY SMILES	QUANTITATIVE RESULT
NC(=O)N1CCC[C@@H](N(C(=O)NCc2ccc(OC(F)(F)F)cc2F)C2CC2)C1	3330

====

- TEST DETAILS: Plasma levels of Compound 1 over 24 hours after 14 days of suspension administration in healthy volunteers
- Format: in vivo
- RECORDED CONDITIONS: human, oral, 75 mg BID suspension, 24 h post-dose
ASSAY READOUT: concentration at 24 h (ng/mL)

QUERY SMILES	RESULT UNIT	QUANTITATIVE RESULT
NC(=O)N1CCC[C@@H](N(C(=O)NCc2ccc(OC(F)(F)F)cc2F)C2CC2)C1	ng/mL	741

====

- TEST DETAILS: Plasma levels of Compound 1 over 72 h, suspension versus tablet, fasted or fed, in healthy volunteers
- Format: in vivo
- RECORDED CONDITIONS: human, oral, 100 mg, 100 mg tablet, fasted, 2.5 h post-dose, read-out: Plasma level, Mean

QUERY SMILES	RESULT UNIT	concentration at 2.5 h
NC(=O)N1CCC[C@@H](N(C(=O)NCc2ccc(OC(F)(F)F)cc2F)C2CC2)C1	ng/mL	2530

====

- TEST DETAILS: Plasma levels of Compound 1 over 72 h, suspension versus tablet, fasted or fed, in healthy volunteers
- Type: in vivo
- RECORDED CONDITIONS: human, oral, 100 mg, 100 mg tablet, fed, 48 h post-dose, read-out: Plasma level, Mean
ASSAY READOUT: concentration at 48 h

QUERY SMILES	ASSAY READOUT	RESULT
NC(=O)N1CCC[C@@H](N(C(=O)NCc2ccc(OC(F)(F)F)cc2F)C2CC2)C1	concentration at 48 h	45 ng/mL

====

- TEST DETAILS: Plasma levels of Compound 1 over 24 hours after 14 days of suspension administration in healthy volunteers
- Type: in vivo
- RECORDED CONDITIONS: human, oral, 75 mg BID suspension, 1 h post-dose

QUERY SMILES	concentration at 1 h
NC(=O)N1CCC[C@@H](N(C(=O)NCc2ccc(OC(F)(F)F)cc2F)C2CC2)C1	3860 ng/mL

====

- TEST DETAILS: Plasma levels of Compound 1 over 24 hours after 14 days of suspension administration in healthy volunteers
- Assay type: in vivo
- RECORDED CONDITIONS: human, oral, 150 mg QD suspension, 24 h post-dose
ASSAY READOUT: concentration at 24 h (ng/mL)

QUERY SMILES	RESULT UNIT	QUANTITATIVE RESULT
NC(=O)N1CCC[C@@H](N(C(=O)NCc2ccc(OC(F)(F)F)cc2F)C2CC2)C1	ng/mL	247

====

- TEST DETAILS: Plasma levels of Compound 1 over 24 hours after 14 days of suspension administration in healthy volunteers
- Assay type: in vivo
- RECORDED CONDITIONS: human, oral, 25 mg BID suspension, 0.5 h post-dose

QUERY SMILES	RESULT UNIT	concentration at 0.5 h
NC(=O)N1CCC[C@@H](N(C(=O)NCc2ccc(OC(F)(F)F)cc2F)C2CC2)C1	ng/mL	1190

====

- TEST DETAILS: Plasma levels of Compound 1 over 72 h, suspension versus tablet, fasted or fed, in healthy volunteers
- Assay type: in vivo
- RECORDED CONDITIONS: human, oral, 100 mg, 100 mg tablet, fed, 0.5 h post-dose, read-out: Plasma level, Mean

COMPOUND	concentration at 0.5 h
NC(=O)N1CCC[C@@H](N(C(=O)NCc2ccc(OC(F)(F)F)cc2F)C2CC2)C1 [Cpd 1]	1660 ng/mL

====

- TEST DETAILS: Plasma levels of Compound 1 over 72 h, suspension versus tablet, fasted or fed, in healthy volunteers
- Format: in vivo
- RECORDED CONDITIONS: human, oral, 100 mg, 100 mg tablet, fed, 4 h post-dose, read-out: Plasma level, Mean

MOLECULE	concentration at 4 h (ng/mL)
NC(=O)N1CCC[C@@H](N(C(=O)NCc2ccc(OC(F)(F)F)cc2F)C2CC2)C1 [Cpd 1]	2860

====

- TEST DETAILS: Plasma levels of Compound 1 over 24 hours after 14 days of suspension administration in healthy volunteers
- Type: in vivo
- RECORDED CONDITIONS: human, oral, 25 mg BID suspension, 2 h post-dose

QUERY SMILES	concentration at 2 h
NC(=O)N1CCC[C@@H](N(C(=O)NCc2ccc(OC(F)(F)F)cc2F)C2CC2)C1	922 ng/mL

====

- TEST DETAILS: Plasma levels of Compound 1 over 24 hours after 14 days of suspension administration in healthy volunteers
- Type: in vivo
- RECORDED CONDITIONS: human, oral, 75 mg BID suspension, 10 h post-dose

QUERY SMILES	concentration at 10 h (ng/mL)
NC(=O)N1CCC[C@@H](N(C(=O)NCc2ccc(OC(F)(F)F)cc2F)C2CC2)C1	3600
